Data origin: patent US20080004302A1

Recorded IC50 values for a group of molecules are listed next.
Target: FGFR kinase domain (Homo sapiens, UniProt P11362, C488A/C584S)
Construct: FGFR kinase domain (amino acids 458-765, C488A, C584S) N-terminally fused to a His6-tag; made in house
Sequence (P11362 458-765 C488A/C584S): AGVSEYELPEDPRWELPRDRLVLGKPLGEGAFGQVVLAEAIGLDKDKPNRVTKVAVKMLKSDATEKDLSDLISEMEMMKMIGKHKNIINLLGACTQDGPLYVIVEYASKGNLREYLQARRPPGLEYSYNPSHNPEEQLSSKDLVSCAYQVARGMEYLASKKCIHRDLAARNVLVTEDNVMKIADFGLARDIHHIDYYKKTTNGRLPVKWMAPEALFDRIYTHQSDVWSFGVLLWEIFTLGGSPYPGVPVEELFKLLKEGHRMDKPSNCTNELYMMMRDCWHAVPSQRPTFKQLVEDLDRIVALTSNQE
Assay: Kinase assay (ELISA) for inhibition of FGFR activity
Format: biochemical
Conditions: FGFR inhibition tests, ELISA kinase assay; read-out: Activity class
Description: To determine inhibition of FGFR activity, kinase assays were conducted using ELISA (Enzyme-Linked Immunosorbent Assay) technology. Kinase activity assays were performed in 384-well polypropylene plates (Matrix, 4311) with a total volume of 40 μl in each well. Each well was coated with 2 μg of polyEAY substrate (Sigma, P3899) at 4° C. overnight. […] The colour reaction was stopped by the addition of 20 μl 2M H2SO4 and the plates read at 450 nm on a Spectrafluor Plus (Tecan).

Request: Given the molecule `Cc1cc(CNc2nccc(Nc3cc(C4CC4)[nH]n3)n2)on1` , what is its reported IC50?
Result: < 100 nM

Request: Cool, now `Cc1cc(CN(C)c2nccc(Nc3cc(C)[nH]n3)n2)on1`
Result: 100 to 1000 nM

Request: Next molecule up: `CCCc1cc(Nc2ccnc(NCc3cc(C(N)=O)no3)n2)n[nH]1`
Result: < 100 nM

Request: Next entry: `COc1ccc(CCc2cc(Nc3ccnc(NCc4cc(C(N)=O)no4)n3)[nH]n2)cc1`
Result: 100 to 1000 nM

Request: Same lookup for `COc1cc(Nc2cc(OC(C)C)[nH]n2)nc(NCc2cc(C3CC3)no2)n1` , please.
Result: < 100 nM

Request: Entry `COc1cc(COc2cc(Nc3ccnc(NCc4cc(C)no4)n3)n[nH]2)cc(OC)c1` please
Result: < 100 nM

Request: Also need `COc1cc(Nc2cc(OC(C)C)n[nH]2)nc(NCc2cc(C)no2)n1` , thanks.
Result: < 100 nM

Request: Same question for `CCCc1cc(Nc2ccnc(NCc3cc(C4CC4)no3)n2)n[nH]1` please.
Result: < 100 nM
